meta.source: patent US3959468A

# assay notes: physchem
# Assay type: physicochemical
# measurement conditions: methanol, organic solvent or mixture; read-out: solubility in methanol
endpoint name: solubility

Lab note: measured solubility of CC=CC1C=CC2CC(C)CCC2C1(C)C(O)=C1C(=O)C(CO)N(C)C1=O (stereo not shown) was > 220 mg/mL

====

# assay notes: in vivo
# Set-up: species or system Swiss-Webster female mice
# measurement conditions: mouse, in vivo, ip; intraperitoneal, propylene glycol, 25 g. Swiss-Webster female mice; read-out: intraperitoneal LD50 dose
endpoint name: LD50 (mg/kg)
Hi! Could you send only the number? It should be in mg/kg, unit omitted.

The compound listed as CC=CC1C=CC2CC(C)CCC2C1(C)C(O)=C1C(=O)C(CO)N(C)C1=O (stereo not shown) [equisetin] has a reported LD50 of 63
